Provenance of the data: the supplement of paper PMC3545927

Target Under Test: furin, P09958;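 further: purified furin at 1:10 enzyme:substrate in 50 mM HEPES pH 7.5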
Sequence (P09958 whole entry): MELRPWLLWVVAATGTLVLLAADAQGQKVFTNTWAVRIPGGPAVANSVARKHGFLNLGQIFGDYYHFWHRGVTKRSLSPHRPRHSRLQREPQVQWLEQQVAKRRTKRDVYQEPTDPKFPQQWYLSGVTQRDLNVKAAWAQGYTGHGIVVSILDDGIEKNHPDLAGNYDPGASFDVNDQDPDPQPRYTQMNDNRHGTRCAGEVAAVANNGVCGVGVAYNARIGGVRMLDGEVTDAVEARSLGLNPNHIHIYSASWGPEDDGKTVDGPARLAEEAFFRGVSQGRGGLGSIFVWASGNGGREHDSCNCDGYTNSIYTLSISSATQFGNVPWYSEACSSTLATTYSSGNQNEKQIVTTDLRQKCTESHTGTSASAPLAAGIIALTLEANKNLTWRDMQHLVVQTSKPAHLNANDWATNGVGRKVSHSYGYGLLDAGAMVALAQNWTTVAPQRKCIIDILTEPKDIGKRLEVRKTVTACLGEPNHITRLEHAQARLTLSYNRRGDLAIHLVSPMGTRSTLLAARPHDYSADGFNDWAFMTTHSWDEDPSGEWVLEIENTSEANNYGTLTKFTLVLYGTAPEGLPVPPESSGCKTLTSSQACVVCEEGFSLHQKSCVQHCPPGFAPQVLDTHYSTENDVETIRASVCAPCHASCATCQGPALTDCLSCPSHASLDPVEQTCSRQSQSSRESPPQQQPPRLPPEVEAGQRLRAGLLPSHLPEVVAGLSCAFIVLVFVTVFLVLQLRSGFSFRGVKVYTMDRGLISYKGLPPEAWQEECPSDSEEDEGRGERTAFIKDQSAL
Procedure Details: furin cleavage Z-score vs untreated control; higher = more cleavage, active = 3.5 or more, inactive = 1 or less, 8 variable residues between constant flanks
Reported Conditions: 7.5 min
This is one part of the list. The hit rate among all sequences tested is not known here.
Record form. Attribute: furin cleavage Z-score. Fill in for each entry.
Form field (numeric): enter value without unit.

Data point: CAACPRRARGAGNASASA [FS-1297] ; furin cleavage Z-score = -0.34

Data point: CAEVPCHRSSAGNASASA [HC2397] ; furin cleavage Z-score = 0.159

Data point: CAARARLPRDAGNASASA [FS-1185] ; furin cleavage Z-score = 9.09

Data point: CAARGRGGRDAGNASASA [FS-978] ; furin cleavage Z-score = 0.0621

Data point: CAARARLGRQAGNASASA [FS-400] ; furin cleavage Z-score = 5.77

Data point: CAARPRRARQAGNASASA [FS-1585] ; furin cleavage Z-score = 9.65

Data point: CATRARLSRPAGNASASA [FS-1098] ; furin cleavage Z-score = -0.0765
